Biological target: RNF31 UBA domain (Homo sapiens)
Construct: RNF31 UBA domain protein (residues 480-639) with N-terminal Thioredoxin-TEV-6×his-yBBr-3C tags; Thioredoxin (N, cleaved yes); made in house; host or cells: E. coli BL21 (DE3) pLysS
Sequence (Q96EP0 480-639): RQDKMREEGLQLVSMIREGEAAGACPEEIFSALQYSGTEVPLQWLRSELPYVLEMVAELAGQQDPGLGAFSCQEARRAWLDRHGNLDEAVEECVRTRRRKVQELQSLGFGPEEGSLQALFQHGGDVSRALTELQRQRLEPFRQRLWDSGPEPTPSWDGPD
Assay: Phage Library Screening with NGS, RNF31 UBA domain
Assay type: binding
Conditions: RNF31 UBA domain cluster C46; target concentration 300
Rule: Phage library screen NGS readout, Target Concentration 300 of 100 or more gives met; anything lower gives not met.

Worked cases, answers included:
DPAAQACLSAAVFCAWY : not met
DPALQSCLSAAVYCTVS : not met
DPAQMSCFSAAVYCRLF : not met
DPAQRQCLSAAVWCATF : met
DPAHVRCTSAALWCNIF : not met
DPALTNCFSAAVYCAMF : met

**Q:** Tell me whether Phage library screen NGS readout, Target Concentration 300 is at least 100 here: DPAALACLSAAVYCEMY
**A:** met

**Q:** Tell me whether Phage library screen NGS readout, Target Concentration 300 is at least 100 here: DPAVQSCLSAAVYCAFR
**A:** met

**Q:** Tell me whether Phage library screen NGS readout, Target Concentration 300 is at least 100 here: DPAQMFCYSAAVYCAAF
**A:** not met

**Q:** Tell me whether Phage library screen NGS readout, Target Concentration 300 is at least 100 here: DPASASCLSAAIYCSMF
**A:** met

**Q:** Tell me whether Phage library screen NGS readout, Target Concentration 300 is at least 100 here: DPAASQCFSAAVYCAWI
**A:** not met

**Q:** Tell me whether Phage library screen NGS readout, Target Concentration 300 is at least 100 here: DPAQLNCLSAAMYCALY
**A:** not met

**Q:** Tell me whether Phage library screen NGS readout, Target Concentration 300 is at least 100 here: DPAEQRCLSAAVYCAWH
**A:** not met

**Q:** Tell me whether Phage library screen NGS readout, Target Concentration 300 is at least 100 here: DPALRTCLSAAVFCAVA
**A:** not met

---

Molecular target: CUL4B (Homo sapiens, UniProt Q13620, L520D/V516R)
Construct: GST-TEV (N, cleaved yes); made in house; host or cells: E. coli BL21 CodonPlus
Sequence (Q13620 206-557 V516R/L520D): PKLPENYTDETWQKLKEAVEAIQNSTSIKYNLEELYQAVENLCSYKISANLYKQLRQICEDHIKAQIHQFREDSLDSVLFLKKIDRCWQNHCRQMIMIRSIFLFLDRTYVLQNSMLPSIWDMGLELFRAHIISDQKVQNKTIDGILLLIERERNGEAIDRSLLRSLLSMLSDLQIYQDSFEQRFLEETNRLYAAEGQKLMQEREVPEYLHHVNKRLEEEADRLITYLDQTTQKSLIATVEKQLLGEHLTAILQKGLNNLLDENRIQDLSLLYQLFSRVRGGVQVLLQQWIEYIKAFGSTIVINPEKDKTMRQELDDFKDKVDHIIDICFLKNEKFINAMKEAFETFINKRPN
Test: Naive Library Presenter Screening (phage, NGS), CUL4B
Format: binding
Conditions: CUL4B target concentration 30 nM
ASSAY READOUT: interaction data at Target Concentration 30
Just the number.

DPADRLCELAAWVCQSF : 0
DPADRQCLFAAWYCEHT : 10
DPATRMCELAAWTCEVW : 0

**Q:** Bench note: what interaction data at Target Concentration 30 did DPADRQCIFAAWMCEAF show?
**A:** 0
